Could you please report measured inhibition for the items listed next?
targetUnderTest: Fructose-bisphosphate aldolase (Mycobacterium tuberculosis (strain ATCC 25618 / H37Rv)) (UniProt P9WQA3)
Sequence (P9WQA3 whole entry, looked up): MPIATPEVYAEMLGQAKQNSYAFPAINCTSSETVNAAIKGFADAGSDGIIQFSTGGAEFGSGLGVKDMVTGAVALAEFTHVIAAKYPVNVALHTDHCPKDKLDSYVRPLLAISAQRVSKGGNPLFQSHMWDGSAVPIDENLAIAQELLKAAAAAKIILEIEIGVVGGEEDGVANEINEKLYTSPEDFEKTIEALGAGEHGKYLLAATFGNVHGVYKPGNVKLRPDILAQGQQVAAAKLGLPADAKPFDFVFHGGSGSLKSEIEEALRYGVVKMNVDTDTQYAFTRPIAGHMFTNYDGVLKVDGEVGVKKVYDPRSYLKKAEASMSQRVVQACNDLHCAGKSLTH
protocolDetails: M. tuberculosis aldolase blockers, biochemical, fluorescence, strain H37Rv, confirmation (AID 651616);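 note: 0% = vehicle wells and 100% = reference inhibitor wells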
measurementContext: purified M. tuberculosis FBA, fluorescence read-out, at 1 µM, active compounds read high
Hit rate of the full screen: of about 5,600 compounds, about 4,400 (79%) were called active. So high a share suggests a set chosen from earlier hits. Not all results are given here.
Give bare numbers, in %.

Consider the following illustrative entries.
COc1ccc(-n2cc(CN(C)Cc3n[nH]c(=O)[nH]3)c(-c3cccc(F)c3)n2)cc1
44.3
O=C(O)c1cccnc1Sc1ncnc2sc3c(c12)CCC3
59.7

Attention now shifts to the item below.
Query "CCOC(=O)N1CCC(NC(=O)c2cnn3ccccc23)CC1" yields inhibition of 42.5

====

targetUnderTest: Fructose-bisphosphate aldolase (Mycobacterium tuberculosis (strain ATCC 25618 / H37Rv)) (UniProt P9WQA3)
protocolDetails: M. tuberculosis aldolase blockers, biochemical, fluorescence, strain H37Rv, confirmation (AID 651616);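 note: 0% = vehicle wells and 100% = reference inhibitor wells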
measurementContext: purified M. tuberculosis FBA, fluorescence read-out, at 1 µM
The campaign covered roughly 5,600 compounds. About 4,400 (79%) were called active. Cut-off read from the data, not from the text of the source: active = inhibition above about 27%; inactive = the rest. The set was probably picked from earlier hits. A selection follows.
Reply using exactly one outcome from active, inactive

Fc1ccc(COc2cccc(-c3n[nH]c(=S)o3)c2)cc1
active
Cc1cc(C)nc(SCc2cn3c(C)cc(C)nc3n2)n1
active
O=C(Nc1ccc(-c2nnc(-c3ccccc3)o2)cc1)C1CCCO1 (configuration not stated)
inactive
Cc1ccn2c(c1)nc(=O)c1cc(S(=O)(=O)N3CCC(C)CC3)ccc12
inactive
CN(CCOc1ccccc1)C(=O)c1cc(-c2ccco2)nc2ccccc12
inactive
COc1ccc(C2NC(=O)c3ccccc3N2)cc1 (configuration not stated)
active

IN: Query: recorded result category for "Oc1ccc(Br)cc1C=Nc1ccc2[nH]ncc2c1" in this test
OUT: active

IN: Query: recorded result category for "COCCCNC(=S)N(CCN(C)C)Cc1cc2cc3c(cc2[nH]c1=O)OCCO3" in this test
OUT: active

IN: Query: recorded result category for "COc1cc(C(F)(F)F)nc2c(Br)c(C(C)(C)C)nn12" in this test
OUT: active

IN: Query: recorded result category for "COc1cccc(NC(=O)CN(C)CC(=O)Nc2ccc3c(c2)CCC3)c1" in this test
OUT: active

IN: Query: recorded result category for "CCc1cc(=O)oc2cc(C)cc(OCC(=O)N3CCC[C@@H]3C(=O)O)c12" in this test
OUT: active

IN: Query: recorded result category for "CC(C)n1ncc2c(C(=O)NCc3ccccc3CN(C)C)cc(C3CC3)nc21" in this test
OUT: active

IN: Query: recorded result category for CC(C)C1Nc2c(C(=O)O)cccc2C(Nc2ccccc2C(=O)O)C1(C)C (configuration not stated) in this test
OUT: active

IN: Query: recorded result category for "Cc1cc(C)c(-c2c(O)c3ccccc3n(C)c2=O)c(C)c1" in this test
OUT: active

IN: Query: recorded result category for "CN(C(=O)c1ccccn1)c1nnc(-c2ccccn2)s1" in this test
OUT: active

IN: Query: recorded result category for COc1ccc(C2CC(c3cccs3)=NN2c2ccc(F)cc2)cc1OC (configuration not stated) in this test
OUT: active

IN: Query: recorded result category for "COc1cc2nc(N3CCN(C(=O)[C@@H]4CCCO4)CC3)nc(N)c2cc1OC" in this test
OUT: active

IN: Query: recorded result category for "CCc1ccc(-c2cc(C(=O)NCc3ccco3)c3ccccc3n2)s1" in this test
OUT: inactive

IN: Query: recorded result category for O=C1NC(c2cccc(Cl)c2)Nc2ccccc21 (configuration not stated) in this test
OUT: active

IN: Query: recorded result category for "CN1c2ccc(C=O)c3c(C=O)ccc(c23)N(C)C1(C)C" in this test
OUT: inactive

IN: Query: recorded result category for "COc1cccc(NC(=O)CN(C)C(=O)/C=C/c2cc(OC)ccc2OC)c1" in this test
OUT: active
